Assay: cytotoxicity in Drosophila l(2)mbn cells
Format: cell-based
Conditions: Drosophila, 20 µM, replicate 2, relative to DMSO 1%, read-out: % viability, viability 2
assay-readout: viability at 20 µM (%)
Supply the numeric figure in %, leaving out any unit text.

Q) Can you look up the measured viability at 20 µM of C=C1CCC2C(C)(CCC=C(C)C)C(O)CCC2(C)C1Cc1c(OC)oc(C)c(C)c1=O (stereo not shown) for me?
A) 2.72

* * *

Assay: cytotoxicity in Drosophila DL1 cells
Type: cell-based
Conditions: Drosophila, DL1 cells (embryonic macrophage-derived), DL1 cells, 10 µM, replicate 2, relative to DMSO 1%; read-out: % viability, viability 2
assay-readout: viability at 10 µM (%)
Lab book: enter the figure in %, no units written.

C=C1CCC2C(C)(CCC=C(C)C)C(O)CCC2(C)C1Cc1c(OC)oc(CO)c(C)c1=O (stereo not shown) ... 6.35
C=C1CC[C@H]2[C@]3(C)C[C@@H](C=C(C)C)O[C@H]3CC[C@]2(C)[C@@H]1Cc1c(OC)oc(CO)c(C)c1=O ... 18.8
C=C1CC[C@H]2[C@]3(C)C[C@H](C=C(C)C)O[C@H]3CC[C@]2(C)[C@@H]1Cc1c(OC)oc(C)c(C)c1=O ... 8.3
C=C1CCC2C(C)(CCC=C(C)C)C(=O)CCC2(C)C1Cc1c(O)c(C)c(C)oc1=O (stereo not shown) ... 24.1

Q) For C=C1CCC2C(C)(CC(=O)C=C(C)C)C(O)CCC2(C)C1Cc1c(OC)oc(CO)c(C)c1=O (stereo not shown) , what is its reported viability at 10 µM?
A) 59.6

* * *

Biological target: Aβ42 (Homo sapiens, UniProt P05067)
Sequence (P05067 672-713): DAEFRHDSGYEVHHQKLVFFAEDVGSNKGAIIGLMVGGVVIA
Experiment: Th-T (thioflavin-T) assay of Aβ42 aggregation
Format: biochemical
Conditions: head suffix _20 (concentration 20); reading M76
assay-readout: Th-T fluorescence of Aβ42 (sheet Fig. 7a), mean of three wells
Please state the value as a number alone, without comment.

Use the examples below as a reference point.
C=C1CC[C@@H]2[C@](C)(CC[C@H]3O[C@H](C=C(C)C)C[C@@]23C)[C@@H]1Cc1c(OC)oc(CO)c(C)c1=O [Compound 20] ... 3.391
C=C1CCC2C(C)(CCC=C(C)C)C(O)CCC2(C)C1Cc1c(OC)oc(C)c(C(=O)OC)c1=O (centres unmarked) [Compound 14] ... 1.9741
C=C1CCC2C(C)(CCC=C(C)C)C(O)CCC2(C)C1Cc1c(OC)oc(CO)c(C(=O)OC)c1=O (centres unmarked) [Compound 13] ... 1.058

Q) Recorded Th-T fluorescence of Aβ42 (sheet Fig. 7a), mean of three wells for C=C1CCC2C(C)(CCC=C(C)C)C(O)CCC2(C)C1Cc1c(OC)oc(CO)c(C)c1=O (centres unmarked) [Compound 12] , please?
A) 2.0857

Q) What about this compound? C=C1CC[C@@H]2[C@](C)(CC[C@H]3O[C@H](C=C(C)C)C[C@@]23C)[C@@H]1Cc1c(OC)oc(CO)c(C(=O)OC)c1=O [Compound 21]
A) 0.3296

* * *

Target: UniProt P05067
Assay: Th-T (thioflavin-T) assay of Aβ42 aggregation
Format: biochemical
Conditions: reading M125; compound at 10 (head suffix _10)
Mark criterion met for reported Th-T fluorescence, mean of three wells (Fig. 7a) of 2 or greater; mark criterion not met for anything smaller.

Solved cases below.
C=C1CC[C@@H]2[C@](C)(CC[C@H]3O[C@H](C=C(C)C)C[C@@]23C)[C@@H]1Cc1c(OC)oc(CO)c(C(=O)OC)c1=O ... criterion not met
C=C1CCC2C(C)(CCC=C(C)C)C(O)CCC2(C)C1Cc1c(OC)oc(CO)c(C(=O)OC)c1=O (centres unmarked) ... criterion not met

Q) Is it the case that C=C1CC[C@@H]2[C@](C)(CC[C@H]3O[C@H](C=C(C)C)C[C@@]23C)[C@@H]1Cc1c(OC)oc(CO)c(C)c1=O has Th-T fluorescence, mean of three wells (Fig. 7a) reaching or exceeding 2?
A) criterion met

Q) Param item: C=C1CCC2C(C)(CCC=C(C)C)C(O)CCC2(C)C1Cc1c(OC)oc(CO)c(C)c1=O (centres unmarked)
A) criterion met

Q) Follow-up entry: C=C1CCC2C(C)(CCC=C(C)C)C(O)CCC2(C)C1Cc1c(OC)oc(C)c(C(=O)OC)c1=O (centres unmarked)
A) criterion met

* * *

The entries below come with measured Th-T fluorescence, mean of three wells values attached.
Molecular target: Aβ42 (Homo sapiens, UniProt P05067)
Test: Th-T (thioflavin-T) assay of Aβ42 aggregation
Assay type: biochemical
Settings: Aβ42 aggregation time course, reading M120

Use the examples below as a reference point.
C=C1CC[C@H]2[C@]3(C)C[C@H](C=C(C)C)O[C@H]3CC[C@]2(C)[C@@H]1Cc1c(OC)oc(CO)c(C)c1=O ... 3.809
C=C1CC[C@H]2[C@]3(C)C[C@@H](C=C(C)C)O[C@H]3CC[C@]2(C)[C@@H]1Cc1c(OC)oc(CO)c(C)c1=O ... 3.6432

Q) Request the reported Th-T fluorescence, mean of three wells associated with C=C1CC[C@@H]2[C@](C)(CC[C@H]3O[C@H](C=C(C)C)C[C@@]23C)[C@@H]1Cc1c(OC)oc(CO)c(C(=O)OC)c1=O
A) 1.046

Q) Try this molecule next: C=C1CCC2C(C)(CC(=O)C=C(C)C)C(O)CCC2(C)C1Cc1c(OC)oc(CO)c(C)c1=O (stereo not shown)
A) 3.625

Q) What about this molecule? C=C1CC[C@@H]2[C@](C)(CC[C@H]3O[C@H](C=C(C)C)C[C@@]23C)[C@@H]1Cc1c(OC)oc(CO)c(C)c1=O
A) 4.1845

Q) Follow-up item: C=C1CCC2C(C)(CC(=O)C=C(C)C)C(O)CCC2(C)C1Cc1c(OC)oc(C)c(C)c1=O (stereo not shown)
A) 3.613

Q) And for C=C1CCC2C(C)(CCC=C(C)C)C(=O)CCC2(C)C1Cc1c(O)c(C)c(C)oc1=O (stereo not shown) ?
A) 2.225

* * *

Target: Aβ42 (Homo sapiens, UniProt P05067)
Experiment: Th-T (thioflavin-T) assay of Aβ42 aggregation
Format: biochemical
Conditions: concentration 50, unit not given; time-course reading M139
assay-readout: Th-T fluorescence of Aβ42 with compound, mean of three wells (Fig. 7a source data)
A bare number is all that is needed in reply.

// solved cases for Th-T fluorescence of Aβ42 with compound, mean of three wells (Fig. 7a source data) follow
C=C1CC[C@@H]2[C@](C)(CC[C@H]3O[C@H](C=C(C)C)C[C@@]23C)[C@@H]1Cc1c(OC)oc(CO)c(C)c1=O ... 2.116
C=C1CC[C@@H]2[C@](C)(CC[C@H]3O[C@H](C=C(C)C)C[C@@]23C)[C@@H]1Cc1c(OC)oc(CO)c(C(=O)OC)c1=O ... 0.5032
C=C1CCC2C(C)(CCC=C(C)C)C(O)CCC2(C)C1Cc1c(OC)oc(CO)c(C(=O)OC)c1=O (centres unmarked) ... 0.4782
C=C1CCC2C(C)(CCC=C(C)C)C(O)CCC2(C)C1Cc1c(OC)oc(CO)c(C)c1=O (centres unmarked) ... 1.6439

// moving on: another record for Th-T fluorescence of Aβ42 with compound, mean of three wells (Fig. 7a source data)
Q) Can you share its Th-T fluorescence of Aβ42 with compound, mean of three wells (Fig. 7a source data)? I mean this molecule: C=C1CCC2C(C)(CCC=C(C)C)C(O)CCC2(C)C1Cc1c(OC)oc(C)c(C(=O)OC)c1=O (centres unmarked)
A) 0.7658

* * *

Biological target: UniProt P05067
Test: Th-T (thioflavin-T) assay of Aβ42 aggregation
Assay type: biochemical
Settings: column suffix _10; measurement M26
Decide using Th-T fluorescence, mean of three wells (Fig. 7a) alone. Strictly below 2: 1.0. Equal to or above 2: 0.0.

Record excerpt, results attached:
C=C1CC[C@@H]2[C@](C)(CC[C@H]3O[C@H](C=C(C)C)C[C@@]23C)[C@@H]1Cc1c(OC)oc(CO)c(C(=O)OC)c1=O [Compound 21] ... 1.0
C=C1CCC2C(C)(CCC=C(C)C)C(O)CCC2(C)C1Cc1c(OC)oc(CO)c(C)c1=O (centres unmarked) [Compound 12] ... 0.0
C=C1CCC2C(C)(CCC=C(C)C)C(O)CCC2(C)C1Cc1c(OC)oc(C)c(C(=O)OC)c1=O (centres unmarked) [Compound 14] ... 0.0
C=C1CC[C@@H]2[C@](C)(CC[C@H]3O[C@H](C=C(C)C)C[C@@]23C)[C@@H]1Cc1c(OC)oc(CO)c(C)c1=O [Compound 20] ... 0.0

Turning now to a further record.
Q) Below 2 on Th-T fluorescence, mean of three wells (Fig. 7a)? Entry C=C1CCC2C(C)(CCC=C(C)C)C(O)CCC2(C)C1Cc1c(OC)oc(CO)c(C(=O)OC)c1=O (centres unmarked) [Compound 13]
A) 1.0
